Data provenance is patent US10428140B2.

target.or.system: T1, human EphA4 (binding to human Ephrin A5) (Homo sapiens, UniProt P54764)
T1 construct: made in house; not restated for the human SEAP-His protein
T1 sequence (P54764 20-547): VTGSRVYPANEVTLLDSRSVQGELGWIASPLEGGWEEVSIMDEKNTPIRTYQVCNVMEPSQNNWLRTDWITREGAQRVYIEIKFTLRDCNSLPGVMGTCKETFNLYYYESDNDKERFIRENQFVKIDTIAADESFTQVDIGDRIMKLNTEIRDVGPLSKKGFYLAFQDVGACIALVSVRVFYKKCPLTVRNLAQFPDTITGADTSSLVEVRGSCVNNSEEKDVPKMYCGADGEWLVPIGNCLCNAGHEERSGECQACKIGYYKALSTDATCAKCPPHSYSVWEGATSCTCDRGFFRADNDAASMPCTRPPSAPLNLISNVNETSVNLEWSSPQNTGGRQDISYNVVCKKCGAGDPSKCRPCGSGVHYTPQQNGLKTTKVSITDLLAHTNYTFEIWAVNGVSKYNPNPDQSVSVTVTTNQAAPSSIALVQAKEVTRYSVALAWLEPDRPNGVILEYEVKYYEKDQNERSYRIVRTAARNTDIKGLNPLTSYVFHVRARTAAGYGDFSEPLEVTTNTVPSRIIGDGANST
assay.info: Human EphA4-human ligand binding inhibition ELISA of humanized antibodies (biotinylated Ephrin A5-Fc)
particulars: biotinylated human Ephrin A5-Fc 0.7 nM
reported.endpoint: IC50 (nM)
Give just the number in nM; leave the unit off.

// IC50 lookup, key: 133 (antibody, V domains shown, synthetic humanized antibody heavy chain variable region sequence; synthetic humanized antibody light chain variable region sequence) VH: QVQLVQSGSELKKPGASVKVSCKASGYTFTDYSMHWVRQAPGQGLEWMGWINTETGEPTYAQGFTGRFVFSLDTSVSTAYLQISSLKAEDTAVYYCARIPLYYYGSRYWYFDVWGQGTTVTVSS VL: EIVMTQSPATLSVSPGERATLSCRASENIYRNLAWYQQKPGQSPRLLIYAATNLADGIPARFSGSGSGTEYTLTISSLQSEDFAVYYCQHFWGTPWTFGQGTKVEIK 3

Field entry: 153 (antibody, V domains shown, synthetic humanized antibody heavy chain variable region sequence; synthetic humanized antibody light chain variable region sequence) VH: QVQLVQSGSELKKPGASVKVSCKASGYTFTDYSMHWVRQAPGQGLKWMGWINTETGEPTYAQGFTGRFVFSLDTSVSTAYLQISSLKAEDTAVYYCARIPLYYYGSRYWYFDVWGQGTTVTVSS VL: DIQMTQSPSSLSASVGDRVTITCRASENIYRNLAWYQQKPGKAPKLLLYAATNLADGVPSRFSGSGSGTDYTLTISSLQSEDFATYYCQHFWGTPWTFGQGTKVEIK 2.3
